target of assay: plasma purified human complement protein C3 (human) (UniProt P01024)
Sequence (P01024 23-667, chain 1 of 2): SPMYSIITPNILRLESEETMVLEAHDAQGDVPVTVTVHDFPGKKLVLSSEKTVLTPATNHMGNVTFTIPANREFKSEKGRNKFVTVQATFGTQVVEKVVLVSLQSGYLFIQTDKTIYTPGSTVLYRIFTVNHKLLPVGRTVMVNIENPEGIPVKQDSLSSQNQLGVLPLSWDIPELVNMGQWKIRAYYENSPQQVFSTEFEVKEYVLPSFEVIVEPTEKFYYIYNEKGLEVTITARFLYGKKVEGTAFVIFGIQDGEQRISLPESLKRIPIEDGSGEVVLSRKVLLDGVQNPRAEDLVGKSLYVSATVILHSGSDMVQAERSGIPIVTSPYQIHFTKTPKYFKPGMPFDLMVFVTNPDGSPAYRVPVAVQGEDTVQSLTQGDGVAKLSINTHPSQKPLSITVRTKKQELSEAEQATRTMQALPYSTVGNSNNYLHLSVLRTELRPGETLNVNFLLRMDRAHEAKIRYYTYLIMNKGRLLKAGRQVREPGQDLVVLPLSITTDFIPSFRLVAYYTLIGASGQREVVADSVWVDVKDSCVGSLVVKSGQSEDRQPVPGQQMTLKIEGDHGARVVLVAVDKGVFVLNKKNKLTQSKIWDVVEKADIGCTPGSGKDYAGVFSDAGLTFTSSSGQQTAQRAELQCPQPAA
Sequence (P01024 672-1663, chain 2 of 2): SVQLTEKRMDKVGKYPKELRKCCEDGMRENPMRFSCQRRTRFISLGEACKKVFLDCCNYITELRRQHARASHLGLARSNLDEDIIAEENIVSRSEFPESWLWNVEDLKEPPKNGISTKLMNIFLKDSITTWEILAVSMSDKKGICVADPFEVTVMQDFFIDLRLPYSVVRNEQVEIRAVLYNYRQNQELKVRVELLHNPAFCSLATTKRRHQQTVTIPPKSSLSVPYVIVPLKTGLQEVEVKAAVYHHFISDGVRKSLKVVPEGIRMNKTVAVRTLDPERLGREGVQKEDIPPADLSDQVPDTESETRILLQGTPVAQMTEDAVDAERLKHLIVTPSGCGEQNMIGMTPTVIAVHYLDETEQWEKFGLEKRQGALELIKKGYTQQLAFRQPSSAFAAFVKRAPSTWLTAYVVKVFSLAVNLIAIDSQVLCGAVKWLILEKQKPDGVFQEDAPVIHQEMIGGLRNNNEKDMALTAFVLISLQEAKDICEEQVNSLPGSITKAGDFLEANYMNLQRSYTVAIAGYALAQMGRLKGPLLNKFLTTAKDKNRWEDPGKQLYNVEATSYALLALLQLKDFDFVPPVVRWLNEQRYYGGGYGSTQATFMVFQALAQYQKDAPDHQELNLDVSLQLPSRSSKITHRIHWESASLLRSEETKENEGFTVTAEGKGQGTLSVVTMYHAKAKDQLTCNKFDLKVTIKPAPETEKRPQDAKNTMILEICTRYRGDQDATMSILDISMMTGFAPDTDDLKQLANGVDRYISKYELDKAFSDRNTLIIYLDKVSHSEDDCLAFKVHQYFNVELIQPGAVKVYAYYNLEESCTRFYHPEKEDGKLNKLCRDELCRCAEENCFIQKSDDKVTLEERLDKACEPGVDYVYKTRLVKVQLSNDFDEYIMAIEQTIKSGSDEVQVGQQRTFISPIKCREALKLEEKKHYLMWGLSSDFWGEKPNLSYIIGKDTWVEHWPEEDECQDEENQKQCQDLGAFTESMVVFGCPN
assay remarks: cell-based or functional assay
# key: entry, value: EC50 of hC3 cleavage
Quick note: give the figure in nM, leave out the unit.

Some entries whose results are on file:
>>> value_observed("MTSP-1 H40R/I41H/F97D/F99L/C122S/Q175M/Q192D/D217N/K224R (enzyme) VVGGTDADEGEWPWQVSLHALGQGRHCGASLISPNWLVSAAHCYIDDRGFRYSDPTQWTAFLGLHDQSQRSAPGVQERRLKRIISHPFFNDDTLDYDIALLELEKPAEYSSMVRPISLPDASHVFPAGKAIWVTGWGHTQYGGTGALILQKGEIRVINQTTCENLLPQMITPRMMCVGFLSGGVDSCDGDSGGPLSSVEADGRIFQAGVVSWGNGCAQRNRPGVYTRLPLFRDWIKENTGV")
9990
>>> value_observed("MTSP-1 H40R/I41H/Y60gF/F97D/F99L/C122S/Q192G/D217M/K224R (enzyme) VVGGTDADEGEWPWQVSLHALGQGRHCGASLISPNWLVSAAHCYIDDRGFRFSDPTQWTAFLGLHDQSQRSAPGVQERRLKRIISHPFFNDDTLDYDIALLELEKPAEYSSMVRPISLPDASHVFPAGKAIWVTGWGHTQYGGTGALILQKGEIRVINQTTCENLLPQQITPRMMCVGFLSGGVDSCGGDSGGPLSSVEADGRIFQAGVVSWGMGCAQRNRPGVYTRLPLFRDWIKENTGV")
38
>>> value_observed("MTSP-1 Q38Y/I41A/D60bL/F60eQ/ins97aV/F97D/T98P/F99L/C122S/G151N/Q175M/Q192A (enzyme) VVGGTDADEGEWPWQVSLHALGYGHACGASLISPNWLVSAAHCYIDLRGQRYSDPTQWTAFLGLHDQSQRSAPGVQERRLKRIISHPFFNDDVPLDYDIALLELEKPAEYSSMVRPISLPDASHVFPAGKAIWVTGWGHTQYGGTNALILQKGEIRVINQTTCENLLPQMITPRMMCVGFLSGGVDSCAGDSGGPLSSVEADGRIFQAGVVSWGDGCAQRNKPGVYTRLPLFRDWIKENTGV")
1.53

Lookup result for MTSP-1 H40K/I41L/Y60gF/F97D/F99L/C122S/G151N/Q175R (enzyme) VVGGTDADEGEWPWQVSLHALGQGKLCGASLISPNWLVSAAHCYIDDRGFRFSDPTQWTAFLGLHDQSQRSAPGVQERRLKRIISHPFFNDDTLDYDIALLELEKPAEYSSMVRPISLPDASHVFPAGKAIWVTGWGHTQYGGTNALILQKGEIRVINQTTCENLLPQRITPRMMCVGFLSGGVDSCQGDSGGPLSSVEADGRIFQAGVVSWGDGCAQRNKPGVYTRLPLFRDWIKENTGV ; measured EC50 of hC3 cleavage: 237

Lookup result for MTSP-1 Q38R/I41T/D60bT/ins97aV/F97D/T98P/F99L/C122S/I136V/Q192G/D217N/L233Q (enzyme) VVGGTDADEGEWPWQVSLHALGRGHTCGASLISPNWLVSAAHCYIDTRGFRYSDPTQWTAFLGLHDQSQRSAPGVQERRLKRIISHPFFNDDVPLDYDIALLELEKPAEYSSMVRPISLPDASHVFPAGKAVWVTGWGHTQYGGTGALILQKGEIRVINQTTCENLLPQQITPRMMCVGFLSGGVDSCGGDSGGPLSSVEADGRIFQAGVVSWGNGCAQRNKPGVYTRLPQFRDWIKENTGV ; measured EC50 of hC3 cleavage: 39.8
